# assay-text: Plasma clearance in rat at 10 umol/kg, intra-arterial for 10 mins
# Format: ADME, organism-based
readout-name: clearance (mL/min/kg)

{"compound": "COCC1=C(c2nc3cc(F)ccc3n2C)C(c2ccc(Cl)c(Cl)c2)n2nccc2N1 (configuration not stated)", "readout-name": "clearance", "units-of-measure": "mL/min/kg", "readout-value": 42}
{"compound": "CC1=C(c2nc3cc(F)ccc3n2C)C(c2ccc(Cl)c(Cl)c2)n2nccc2N1 (configuration not stated)", "readout-name": "clearance", "units-of-measure": "mL/min/kg", "readout-value": 35}

* * *

# experimental-system: UniProtKB Q12809
# Sequence (Q12809 whole entry): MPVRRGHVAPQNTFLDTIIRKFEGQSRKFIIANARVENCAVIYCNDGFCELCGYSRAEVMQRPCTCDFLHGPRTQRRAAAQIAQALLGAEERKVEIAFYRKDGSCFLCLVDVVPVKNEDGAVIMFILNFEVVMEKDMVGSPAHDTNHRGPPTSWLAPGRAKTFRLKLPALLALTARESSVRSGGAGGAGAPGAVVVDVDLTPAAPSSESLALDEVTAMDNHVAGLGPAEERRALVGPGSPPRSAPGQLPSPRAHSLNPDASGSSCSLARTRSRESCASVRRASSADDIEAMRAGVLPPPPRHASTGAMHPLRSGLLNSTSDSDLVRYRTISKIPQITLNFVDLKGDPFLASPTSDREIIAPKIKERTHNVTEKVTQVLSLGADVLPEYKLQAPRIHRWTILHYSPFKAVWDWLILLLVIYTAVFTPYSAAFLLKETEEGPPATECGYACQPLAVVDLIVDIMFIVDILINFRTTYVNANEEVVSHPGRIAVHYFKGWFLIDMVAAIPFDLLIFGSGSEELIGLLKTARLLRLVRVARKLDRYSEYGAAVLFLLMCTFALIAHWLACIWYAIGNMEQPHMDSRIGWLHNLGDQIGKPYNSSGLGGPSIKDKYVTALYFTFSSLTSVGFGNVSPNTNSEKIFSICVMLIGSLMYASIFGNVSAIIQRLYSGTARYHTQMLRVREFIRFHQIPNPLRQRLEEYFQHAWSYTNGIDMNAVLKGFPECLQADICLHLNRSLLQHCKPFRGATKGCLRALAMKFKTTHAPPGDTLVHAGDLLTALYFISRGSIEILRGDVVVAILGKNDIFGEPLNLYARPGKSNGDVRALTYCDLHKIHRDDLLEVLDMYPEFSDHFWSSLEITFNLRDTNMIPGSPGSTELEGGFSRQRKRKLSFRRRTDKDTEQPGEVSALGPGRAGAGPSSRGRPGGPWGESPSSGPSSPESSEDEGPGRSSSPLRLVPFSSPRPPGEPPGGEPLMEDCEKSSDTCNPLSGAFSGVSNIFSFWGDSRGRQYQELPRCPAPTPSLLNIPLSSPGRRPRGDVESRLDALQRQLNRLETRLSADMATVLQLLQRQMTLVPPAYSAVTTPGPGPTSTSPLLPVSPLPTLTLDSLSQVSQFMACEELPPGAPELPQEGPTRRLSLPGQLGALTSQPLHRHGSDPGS
# assay-text: Inhibition of human ERG at 10 uM
Entries and their inhibition at 10 µM
readout-name: inhibition at 10 µM (%)

{"molecule": "CC1=C(c2nc3cc(F)ccc3n2C)C(c2ccc(Cl)c(Cl)c2)n2nccc2N1 (configuration not stated)", "readout-value": 83}
{"molecule": "COCC1=C(c2nc3cc(F)ccc3n2C)C(c2ccc(Cl)c(Cl)c2)n2nccc2N1 (configuration not stated)", "readout-value": 47}

* * *

# assay-text: Terminal half life in rat at 10 umol/kg, intra-arterial for 10 mins
# Assay type: ADME, organism-based
# experimental-parameters: in vivo, read-out: beta t1/2 (converted)
half-life: recorded values

{"compound": "CC1=C(c2nc3cc(F)ccc3n2C)C(c2ccc(Cl)c(Cl)c2)n2nccc2N1 (configuration not stated)", "half-life / h": 0.57}
{"compound": "COCC1=C(c2nc3cc(F)ccc3n2C)C(c2ccc(Cl)c(Cl)c2)n2nccc2N1 (configuration not stated)", "half-life / h": 1.5}

* * *

# assay-text: Oral bioavailability in rat at 20 umol/kg
# Type: ADME, organism-based
# experimental-parameters: in vivo
readout-name: bioavailability (%)

{"compound": "COCC1=C(c2nc3cc(F)ccc3n2C)C(c2ccc(Cl)c(Cl)c2)n2nccc2N1 (configuration not stated)", "readout-value": 37}
{"compound": "CC1=C(c2nc3cc(F)ccc3n2C)C(c2ccc(Cl)c(Cl)c2)n2nccc2N1 (configuration not stated)", "readout-value": 51}

* * *

# assay-text: Volume of distribution at steady state in rat at 10 umol/kg, intra-arterial for 10 mins
# Type: ADME, organism-based
# experimental-parameters: in vivo, read-out: Vdss
readout-name: Vd

{"molecule": "CC1=C(c2nc3cc(F)ccc3n2C)C(c2ccc(Cl)c(Cl)c2)n2nccc2N1 (configuration not stated)", "readout-name": "Vd", "readout-value": "1.6 L/kg"}
{"molecule": "COCC1=C(c2nc3cc(F)ccc3n2C)C(c2ccc(Cl)c(Cl)c2)n2nccc2N1 (configuration not stated)", "readout-name": "Vd", "readout-value": "2.1 L/kg"}

* * *

# experimental-system: Potassium voltage-gated channel subfamily A member 5 (Homo sapiens)
# Sequence (P22460 whole entry): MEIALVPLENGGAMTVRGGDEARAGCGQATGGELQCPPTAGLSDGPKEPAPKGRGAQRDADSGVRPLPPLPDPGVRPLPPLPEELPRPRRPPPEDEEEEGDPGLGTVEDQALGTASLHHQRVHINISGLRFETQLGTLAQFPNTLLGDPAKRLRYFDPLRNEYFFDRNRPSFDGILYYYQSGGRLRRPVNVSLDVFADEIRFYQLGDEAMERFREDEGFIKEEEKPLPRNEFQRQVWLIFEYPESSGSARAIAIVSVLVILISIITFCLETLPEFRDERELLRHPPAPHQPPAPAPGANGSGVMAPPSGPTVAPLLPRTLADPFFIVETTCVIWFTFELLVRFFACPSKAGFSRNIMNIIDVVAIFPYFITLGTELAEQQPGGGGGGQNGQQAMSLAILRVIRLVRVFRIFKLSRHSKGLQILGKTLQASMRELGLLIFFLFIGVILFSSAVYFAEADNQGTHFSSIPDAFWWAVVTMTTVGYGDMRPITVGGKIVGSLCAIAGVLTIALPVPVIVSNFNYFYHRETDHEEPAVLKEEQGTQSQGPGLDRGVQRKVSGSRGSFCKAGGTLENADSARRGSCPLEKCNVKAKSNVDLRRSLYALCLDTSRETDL
# assay-text: Inhibition of human Kv1.5 channel expressed in mouse L929 cells
Examples of compounds with documented IC50 follow.
readout-name: IC50 (nM)

{"compound": "CC1=C(c2nc3cc(C#N)ccc3n2C)C(c2ccc(Cl)c(Cl)c2)n2nccc2N1 (stereo unspecified)", "readout-name": "IC50", "operator-symbol": "=", "readout-value": 220}
{"compound": "CC1=C(c2nc3cc(S(C)(=O)=O)ccc3n2C)C(c2ccc(Cl)c(Cl)c2)n2nccc2N1 (stereo unspecified)", "readout-name": "IC50", "operator-symbol": ">", "readout-value": 1000}
{"compound": "CC1=C(c2nc3cc(C(F)(F)F)ccc3n2C)C(c2ccc(Cl)c(Cl)c2)n2nccc2N1 (stereo unspecified)", "readout-name": "IC50", "operator-symbol": "=", "readout-value": 540}
{"compound": "CCCCc1nnc(C2=C(C)Nc3ccnn3C2c2ccc(Cl)c(Cl)c2)o1 (stereo unspecified)", "readout-name": "IC50", "operator-symbol": ">", "readout-value": 1000}
{"compound": "COCC1=C(c2nc3cc(F)ccc3n2C)C(c2ccc(Cl)c(Cl)c2)n2nccc2N1 (stereo unspecified)", "readout-name": "IC50", "operator-symbol": "=", "readout-value": 30}
{"compound": "CC1=C(c2nc3cccc(Cl)c3n2C)C(c2ccc(Cl)c(Cl)c2)n2nccc2N1 (stereo unspecified)", "readout-name": "IC50", "operator-symbol": "=", "readout-value": 71}
{"compound": "CC1=C(c2nc3cccc(C)c3n2C)C(c2ccc(Cl)c(Cl)c2)n2nccc2N1 (stereo unspecified)", "readout-name": "IC50", "operator-symbol": "=", "readout-value": 110}
{"compound": "CC1=C(c2ncc(-c3ccccc3)o2)C(c2ccc(Cl)c(Cl)c2)n2nccc2N1 (stereo unspecified)", "readout-name": "IC50", "operator-symbol": ">", "readout-value": 1000}
{"compound": "CC1=C(c2nc3cccc(C)c3[nH]2)C(c2ccc(Cl)c(Cl)c2)n2nccc2N1 (stereo unspecified)", "readout-name": "IC50", "operator-symbol": "=", "readout-value": 150}
{"compound": "CC1=C(c2nc3cccc(F)c3n2C)C(c2ccc(Cl)c(Cl)c2)n2nccc2N1 (stereo unspecified)", "readout-name": "IC50", "operator-symbol": "=", "readout-value": 150}
{"compound": "CC1=C(c2nc3cc(S(=O)(=O)Nc4ccccc4)ccc3n2C)C(c2ccc(Cl)c(Cl)c2)n2nccc2N1 (stereo unspecified)", "readout-name": "IC50", "operator-symbol": ">", "readout-value": 1000}
{"compound": "CC1=C(c2nnc(-c3ccccc3)o2)C(c2ccc(Cl)c(Cl)c2)n2nccc2N1 (stereo unspecified)", "readout-name": "IC50", "operator-symbol": ">", "readout-value": 1000}
{"compound": "CC1=C(c2nc3cc(F)ccc3n2C)C(c2ccc(Cl)c(Cl)c2)n2nccc2N1 (stereo unspecified)", "readout-name": "IC50", "operator-symbol": "=", "readout-value": 15}
{"compound": "CC1=C(c2nc3cc(Cl)ccc3n2C)C(c2ccc(Cl)c(Cl)c2)n2nccc2N1 (stereo unspecified)", "readout-name": "IC50", "operator-symbol": "=", "readout-value": 68}
{"compound": "CC1=C(c2nc3cc(C)ccc3n2C)C(c2ccc(Cl)c(Cl)c2)n2nccc2N1 (stereo unspecified)", "readout-name": "IC50", "operator-symbol": "=", "readout-value": 200}
{"compound": "CC1=C(c2nc3ccccc3n2C)C(c2ccc(Cl)c(Cl)c2)n2nccc2N1 (stereo unspecified)", "readout-name": "IC50", "operator-symbol": "=", "readout-value": 75}
{"compound": "CC1=C(c2nc3ccccc3[nH]2)C(c2ccc(Cl)c(Cl)c2)n2nccc2N1 (stereo unspecified)", "readout-name": "IC50", "operator-symbol": "=", "readout-value": 510}
{"compound": "CCn1c(C2=C(C)Nc3ccnn3C2c2ccc(Cl)c(Cl)c2)nc2cc(Cl)ccc21 (stereo unspecified)", "readout-name": "IC50", "operator-symbol": "=", "readout-value": 57}
{"compound": "CC1=C(c2nc3ccccc3s2)C(c2ccc(Cl)c(Cl)c2)n2nccc2N1 (stereo unspecified)", "readout-name": "IC50", "operator-symbol": "=", "readout-value": 740}
{"compound": "CCCn1c(C2=C(C)Nc3ccnn3C2c2ccc(Cl)c(Cl)c2)nc2cc(F)ccc21 (stereo unspecified)", "readout-name": "IC50", "operator-symbol": "=", "readout-value": 48}
{"compound": "CC(=O)Nc1ccc2c(c1)nc(C1=C(C)Nc3ccnn3C1c1ccc(Cl)c(Cl)c1)n2C (stereo unspecified)", "readout-name": "IC50", "operator-symbol": ">", "readout-value": 1000}
{"compound": "COC(=O)c1ccc2c(c1)nc(C1=C(C)Nc3ccnn3C1c1ccc(Cl)c(Cl)c1)n2C (stereo unspecified)", "readout-name": "IC50", "operator-symbol": "=", "readout-value": 200}
{"compound": "CC1=C(c2nc3ccc(C)cc3n2C)C(c2ccc(Cl)c(Cl)c2)n2nccc2N1 (stereo unspecified)", "readout-name": "IC50", "operator-symbol": "=", "readout-value": 980}
{"compound": "CC1=C(c2nc3c(F)cccc3n2C)C(c2ccc(Cl)c(Cl)c2)n2nccc2N1 (stereo unspecified)", "readout-name": "IC50", "operator-symbol": "=", "readout-value": 64}
{"compound": "CC1=C(c2nc3ccc(Cl)cc3n2C)C(c2ccc(Cl)c(Cl)c2)n2nccc2N1 (stereo unspecified)", "readout-name": "IC50", "operator-symbol": "=", "readout-value": 660}
{"compound": "CC1=C(c2nc3cc(Cl)ccc3n2C(C)C)C(c2ccc(Cl)c(Cl)c2)n2nccc2N1 (stereo unspecified)", "readout-name": "IC50", "operator-symbol": "=", "readout-value": 94}

* * *

# experimental-system: Potassium voltage-gated channel subfamily A member 5 (Homo sapiens)
# assay-text: Inhibition of human Kv1.5 channel expressed in mouse L929 cells at >1 uM
# Assay type: cell-based

{"compound": "CCCCc1nnc(C2=C(C)Nc3ccnn3C2c2ccc(Cl)c(Cl)c2)o1 (stereo unspecified)", "inhibition (%)": 29}
{"compound": "CC1=C(c2ncc(-c3ccccc3)o2)C(c2ccc(Cl)c(Cl)c2)n2nccc2N1 (stereo unspecified)", "inhibition (%)": 25}
{"compound": "CC1=C(c2nc3cc(S(C)(=O)=O)ccc3n2C)C(c2ccc(Cl)c(Cl)c2)n2nccc2N1 (stereo unspecified)", "inhibition (%)": 29}
{"compound": "CC1=C(c2nc3cc(S(=O)(=O)Nc4ccccc4)ccc3n2C)C(c2ccc(Cl)c(Cl)c2)n2nccc2N1 (stereo unspecified)", "inhibition (%)": 30}
{"compound": "CC(=O)Nc1ccc2c(c1)nc(C1=C(C)Nc3ccnn3C1c1ccc(Cl)c(Cl)c1)n2C (stereo unspecified)", "inhibition (%)": 8}
{"compound": "CC1=C(c2nnc(-c3ccccc3)o2)C(c2ccc(Cl)c(Cl)c2)n2nccc2N1 (stereo unspecified)", "inhibition (%)": 18}

These entries and their values trace back to ChEMBL document CHEMBL1155962.
